# System: human invasive breast ductal carcinoma cells (ATCC MCF-7)
# Experiment: Cytotoxicity assay (alamarBlue), MCF-7
# Assay type: cell-based
# Condition: MCF7, average ± SE (n = 3), 72 h, alamarBlue, breast cancer cell line, read-out: IC50 MCF-7
pIC50: −log10 of the molar value.

{"Compound": "CC[C@@]1([C@@H]2O[C@@H]([C@H]3O[C@@](O)(CO)[C@H](C)C[C@@H]3C)C[C@@H]2C)CC[C@H]([C@]2(C)CC[C@]3(C[C@H](O)[C@@H](C)[C@@H]([C@@H](C)[C@@H](OC)[C@H](C)C(=O)O)O3)O2)O1 [monensin (4), monensin]", "pIC50": 5.15}
{"Compound": "CO[C@@H]1C[C@@H](C[C@H]2CC[C@H](C)[C@H]([C@@H](C)C(=O)O)O2)O[C@]2(O[C@](C)([C@H]3CC[C@@](C)([C@@H]4O[C@@H]([C@H]5O[C@@](O)(CO)[C@H](C)C[C@@H]5C)C[C@@H]4C)O3)C[C@H]2C)[C@@H]1C [nigericin (5), nigericin]", "pIC50": 5.05}
{"Compound": "CC[C@@H](C(=O)[C@@H](C)[C@@H](O)[C@H](C)[C@@H]1O[C@@H]([C@@H](CC)C(=O)O)CC[C@@H]1C)[C@H]1O[C@]2(C=C[C@@H](O)[C@]3(CC[C@@](C)([C@H]4CC[C@](O)(CC)[C@H](C)O4)O3)O2)[C@H](C)C[C@@H]1C [salinomycin (3), salinomycin]", "pIC50": 5.00}
{"Compound": "COc1cccc2c1C(=O)c1c(O)c3c(c(O)c1C2=O)C[C@@](O)(C(=O)CO)C[C@@H]3O[C@H]1C[C@H](N)[C@H](O)[C@H](C)O1 [doxorubicin control, doxorubicin]", "pIC50": 6.10}
